Target Or System: T1, CD22 (antigen in the Biacore assay) (human, UniProt P20273 20-687, limits assumed)
T1 sequence: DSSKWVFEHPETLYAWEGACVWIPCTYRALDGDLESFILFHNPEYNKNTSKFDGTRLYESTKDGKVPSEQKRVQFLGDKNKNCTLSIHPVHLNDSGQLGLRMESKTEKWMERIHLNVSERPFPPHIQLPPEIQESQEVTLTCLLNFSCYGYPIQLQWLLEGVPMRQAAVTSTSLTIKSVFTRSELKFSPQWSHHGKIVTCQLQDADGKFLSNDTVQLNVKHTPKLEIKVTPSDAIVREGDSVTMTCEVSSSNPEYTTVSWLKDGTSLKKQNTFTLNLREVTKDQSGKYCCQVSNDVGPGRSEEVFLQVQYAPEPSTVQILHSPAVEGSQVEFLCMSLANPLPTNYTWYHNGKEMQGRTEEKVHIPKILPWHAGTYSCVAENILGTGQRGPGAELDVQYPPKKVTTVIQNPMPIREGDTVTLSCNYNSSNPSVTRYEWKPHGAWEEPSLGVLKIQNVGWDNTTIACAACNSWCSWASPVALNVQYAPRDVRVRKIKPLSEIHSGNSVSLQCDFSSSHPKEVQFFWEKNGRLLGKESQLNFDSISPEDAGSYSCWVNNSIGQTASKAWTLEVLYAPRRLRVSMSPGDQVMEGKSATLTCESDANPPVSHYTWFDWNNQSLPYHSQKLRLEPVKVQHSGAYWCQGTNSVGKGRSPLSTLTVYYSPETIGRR
Test Protocol: SPR (Biacore) at 37° C
Overview of reported pKd across a group of binders:
Note: pKd values are expressed as the negative base-10 logarithm of concentration in M.

[
  {
    "Binder": "humanized LL2 L1 + H3 (antibody, V domains shown, Human IgG1 frameworks; also called H3L1) VH: QVQLQQSGAEVKKPGASVKVSCKASGYTFTSYWLHWIRQAPGQRLEWIGYINPRNDYTEYSQKFQGRATLTADTSASTAYMELSSLRSEDTAVYYCARRDITTFYWGQGTTLTVSS VL: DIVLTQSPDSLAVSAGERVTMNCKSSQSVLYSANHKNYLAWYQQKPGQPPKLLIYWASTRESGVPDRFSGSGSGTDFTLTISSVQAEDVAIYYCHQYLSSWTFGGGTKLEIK",
    "pKd": 10.46
  },
  {
    "Binder": "humanized LL2 L2 + H1 (antibody, V domains shown, Human IgG1 frameworks; also called H1L2) VH: QVQLVESGAEVKKPGASVKMSCKASGYTFTSYWLHWIRQAPGQRLEWIGYINPRNDYTKYSQKFQGRATITADKSASTAYMELSSLRSEDTAVYYCARRDITTFYWGQGTTLTVSS VL: DIVLTQSPDSLAVSLGERVTMNCKSSQSVLYSANHKNYLAWYQQKPGQSPKLLIYWASTRESGVPDRFSGSGSGTDFTLTISSVQAEDVAIYYCHQYLSSWTFGGGTKLEIK",
    "pKd": 9.39
  }
]

Enquiry: Assign pKd to the following record: chimeric LL2 antibody (antibody, V domains shown, Murine LL2 variable domains with human constant domains (IgG1)) VH: QVQLQESGAELSKPGASVKMSCKASGYTFTSYWLHWIKQRPGQGLEWIGYINPRNDYTEYNQNFKDKATLTADKSSSTAYMQLSSLTSEDSAVYYCARRDITTFYWGQGTTLTVSS VL: DIQLTQSPSSLAVSAGENVTMSCKSSQSVLYSANHKNYLAWYQQKPGQSPKLLIYWASTRESGVPDRFTGSGSGTDFTLTISRVQVEDLAIYYCHQYLSSWTFGGGTKLEIK
Return: 11.86

Enquiry: Assign pKd to the following record: humanized LL2 L1 + H12 (antibody, V domains shown, Human IgG1 frameworks; also called H12L1; VL1-VH12) VH: QVQLQQSGAEVKKPGASVKMSCKASGYTFTSYWLHWVRQAPGQRLEWMGYINPRNDYTEYNQNFKDRVTITADTSASTAYMELSSLRSEDTAVYYCARRDITTFYWGQGTTLTVSS VL: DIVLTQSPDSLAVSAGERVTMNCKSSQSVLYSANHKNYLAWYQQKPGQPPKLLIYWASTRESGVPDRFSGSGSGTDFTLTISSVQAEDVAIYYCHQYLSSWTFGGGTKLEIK
Return: 11.69

Enquiry: Assign pKd to the following record: humanized LL2 L1 + H10 (antibody, V domains shown, Human IgG1 frameworks; also called H10L1) VH: QVQLVQSGAEVKKPGASVKVSCKASGYTFTSYWLHWVRQAPGQRLEWMGYINPRNDYTEYNQNFKDRVTLTADKSASTAYMELSSLRSEDTAVYYCARRDITTFYWGQGTTLTVSS VL: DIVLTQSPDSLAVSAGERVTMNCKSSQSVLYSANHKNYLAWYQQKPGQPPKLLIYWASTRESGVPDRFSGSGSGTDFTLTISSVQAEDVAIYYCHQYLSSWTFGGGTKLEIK
Return: 13.36

Enquiry: Assign pKd to the following record: humanized LL2 L1 + H4 (antibody, V domains shown, Human IgG1 frameworks; also called H4L1) VH: QVQLQQSGAEVKKPGASVKMSCKASGYTFTSYWLHWIRQAPGQRLEWMGYINPRNDYTEYNQKFQGRATITADKSASTAYMELSSLRSEDTAVYYCARRDITTFYWGQGTTLTVSS VL: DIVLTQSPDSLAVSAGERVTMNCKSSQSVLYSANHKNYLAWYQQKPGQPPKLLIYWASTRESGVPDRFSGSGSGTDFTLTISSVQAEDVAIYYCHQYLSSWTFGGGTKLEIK
Return: 14.72
